The reported numbers originate from patent US11759455B2.

# target: human GluN1/GluN2B NMDA receptors (Homo sapiens)
# Construct: expressed in transfected cells
# Sequence (Q13224 27-1484, other chains not shown): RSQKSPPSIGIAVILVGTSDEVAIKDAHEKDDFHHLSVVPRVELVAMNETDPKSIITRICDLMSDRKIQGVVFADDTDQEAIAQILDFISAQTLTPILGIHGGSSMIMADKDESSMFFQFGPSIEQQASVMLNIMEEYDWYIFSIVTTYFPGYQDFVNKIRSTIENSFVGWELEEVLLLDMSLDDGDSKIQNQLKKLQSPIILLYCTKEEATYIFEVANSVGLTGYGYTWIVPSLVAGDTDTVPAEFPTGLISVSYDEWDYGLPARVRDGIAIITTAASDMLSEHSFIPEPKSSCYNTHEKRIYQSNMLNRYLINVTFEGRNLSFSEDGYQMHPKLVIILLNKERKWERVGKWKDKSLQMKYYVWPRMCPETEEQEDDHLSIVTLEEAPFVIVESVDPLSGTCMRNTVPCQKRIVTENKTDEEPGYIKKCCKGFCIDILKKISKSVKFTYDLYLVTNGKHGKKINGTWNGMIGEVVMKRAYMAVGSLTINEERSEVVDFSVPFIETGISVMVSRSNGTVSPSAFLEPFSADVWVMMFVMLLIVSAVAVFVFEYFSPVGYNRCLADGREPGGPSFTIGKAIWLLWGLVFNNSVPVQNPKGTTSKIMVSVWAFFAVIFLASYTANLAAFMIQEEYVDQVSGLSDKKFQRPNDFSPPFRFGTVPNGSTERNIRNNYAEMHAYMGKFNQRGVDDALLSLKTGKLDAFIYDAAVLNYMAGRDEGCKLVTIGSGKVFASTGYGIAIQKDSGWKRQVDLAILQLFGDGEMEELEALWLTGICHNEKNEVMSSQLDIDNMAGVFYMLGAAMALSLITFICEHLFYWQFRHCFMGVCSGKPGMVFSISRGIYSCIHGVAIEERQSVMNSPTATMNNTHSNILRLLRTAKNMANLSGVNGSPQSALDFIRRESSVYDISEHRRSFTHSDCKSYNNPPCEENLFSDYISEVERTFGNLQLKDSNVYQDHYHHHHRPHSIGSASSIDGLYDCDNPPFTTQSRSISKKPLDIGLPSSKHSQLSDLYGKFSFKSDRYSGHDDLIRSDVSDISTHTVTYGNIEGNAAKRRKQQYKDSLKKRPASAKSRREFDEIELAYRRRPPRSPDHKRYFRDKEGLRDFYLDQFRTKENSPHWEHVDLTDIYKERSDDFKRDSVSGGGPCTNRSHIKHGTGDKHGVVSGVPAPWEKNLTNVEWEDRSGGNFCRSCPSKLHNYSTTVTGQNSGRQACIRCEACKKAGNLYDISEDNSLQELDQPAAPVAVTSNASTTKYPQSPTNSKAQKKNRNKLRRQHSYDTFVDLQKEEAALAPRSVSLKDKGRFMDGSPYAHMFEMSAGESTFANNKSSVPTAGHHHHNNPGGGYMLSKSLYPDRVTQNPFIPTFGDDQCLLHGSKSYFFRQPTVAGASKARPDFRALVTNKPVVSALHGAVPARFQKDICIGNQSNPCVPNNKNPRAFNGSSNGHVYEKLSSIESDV
# procedure summary: Cell-based calcium flux (FLIPR) assay on cloned human NR1/NR2B ion channels expressed in mammalian cells (standard and HTS buffer variants);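 also: stable Tet-On inducible cell line, Ca2+ influx triggered by glutamate at about EC40 plus 10 µM glycine, fluorescent dye read-out over 5 min, normalized to control wells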
# condition context: standard assay buffer (0.5 mM MgCl2 dye loading; 137 mM NaCl, 4 mM KCl assay buffer), human GluN1/GluN2B cells, read-out: NR2B IC50 (μM) standard assay
Some compounds, each annotated with its measured IC50.
readout: IC50 (µM)

[[record]]
compound = "O=c1[nH]c2ncc(-c3cccc(C(F)(F)F)c3)cc2n1CCN1CC(F)C1 [Example 163]"
readout = "IC50"
result_qualifier = "="
recorded_value = 0.246

[[record]]
compound = "CCCNCCn1c(=O)[nH]c2ncc(-c3cc(F)cc(F)c3)cc21 [Example 189]"
readout = "IC50"
result_qualifier = "="
recorded_value = 2.57

[[record]]
compound = "Cc1cccc(-c2cnc3[nH]c(=O)n(CCN4CC(F)C4)c3c2)c1C [Example 182]"
readout = "IC50"
result_qualifier = "="
recorded_value = 1.74

[[record]]
compound = "Cn1c(=O)n(CC(=O)N2CC(F)C2)c2cc(-c3csc(C(F)(F)F)n3)cnc21 [Example 109]"
readout = "IC50"
result_qualifier = "="
recorded_value = 0.04

[[record]]
compound = "CN(C)C(=O)Cn1c(=O)n(C)c2ncc(-c3ccc(F)s3)cc21 [Example 82]"
readout = "IC50"
result_qualifier = "="
recorded_value = 0.154

[[record]]
compound = "COc1cccnc1Cn1c(=O)[nH]c2ncc(-c3cccc(C(F)(F)F)c3)cc21 [Example 233]"
readout = "IC50"
result_qualifier = "="
recorded_value = 2.83

[[record]]
compound = "O=C(Cn1c(=O)[nH]c2ncc(-c3cccc(C(F)(F)F)c3)cc21)N1CC2(CNC2)C1 [Example 207]"
readout = "IC50"
result_qualifier = "="
recorded_value = 0.453

[[record]]
compound = "O=C(Cn1c(=O)[nH]c2ncc(-c3cccc(C(F)(F)F)c3)cc21)Nc1ccccn1 [Example 208]"
readout = "IC50"
result_qualifier = ">"
recorded_value = 10

